Each entry below carries its reported BaF3-ROS1 − IL3 pIC50.
Biological target: Ba/F3 cells containing Ros1 wild-type protein (Homo sapiens, UniProt P08922, cells depend on it, form not given)
Sequence (P08922 whole entry, change not shown): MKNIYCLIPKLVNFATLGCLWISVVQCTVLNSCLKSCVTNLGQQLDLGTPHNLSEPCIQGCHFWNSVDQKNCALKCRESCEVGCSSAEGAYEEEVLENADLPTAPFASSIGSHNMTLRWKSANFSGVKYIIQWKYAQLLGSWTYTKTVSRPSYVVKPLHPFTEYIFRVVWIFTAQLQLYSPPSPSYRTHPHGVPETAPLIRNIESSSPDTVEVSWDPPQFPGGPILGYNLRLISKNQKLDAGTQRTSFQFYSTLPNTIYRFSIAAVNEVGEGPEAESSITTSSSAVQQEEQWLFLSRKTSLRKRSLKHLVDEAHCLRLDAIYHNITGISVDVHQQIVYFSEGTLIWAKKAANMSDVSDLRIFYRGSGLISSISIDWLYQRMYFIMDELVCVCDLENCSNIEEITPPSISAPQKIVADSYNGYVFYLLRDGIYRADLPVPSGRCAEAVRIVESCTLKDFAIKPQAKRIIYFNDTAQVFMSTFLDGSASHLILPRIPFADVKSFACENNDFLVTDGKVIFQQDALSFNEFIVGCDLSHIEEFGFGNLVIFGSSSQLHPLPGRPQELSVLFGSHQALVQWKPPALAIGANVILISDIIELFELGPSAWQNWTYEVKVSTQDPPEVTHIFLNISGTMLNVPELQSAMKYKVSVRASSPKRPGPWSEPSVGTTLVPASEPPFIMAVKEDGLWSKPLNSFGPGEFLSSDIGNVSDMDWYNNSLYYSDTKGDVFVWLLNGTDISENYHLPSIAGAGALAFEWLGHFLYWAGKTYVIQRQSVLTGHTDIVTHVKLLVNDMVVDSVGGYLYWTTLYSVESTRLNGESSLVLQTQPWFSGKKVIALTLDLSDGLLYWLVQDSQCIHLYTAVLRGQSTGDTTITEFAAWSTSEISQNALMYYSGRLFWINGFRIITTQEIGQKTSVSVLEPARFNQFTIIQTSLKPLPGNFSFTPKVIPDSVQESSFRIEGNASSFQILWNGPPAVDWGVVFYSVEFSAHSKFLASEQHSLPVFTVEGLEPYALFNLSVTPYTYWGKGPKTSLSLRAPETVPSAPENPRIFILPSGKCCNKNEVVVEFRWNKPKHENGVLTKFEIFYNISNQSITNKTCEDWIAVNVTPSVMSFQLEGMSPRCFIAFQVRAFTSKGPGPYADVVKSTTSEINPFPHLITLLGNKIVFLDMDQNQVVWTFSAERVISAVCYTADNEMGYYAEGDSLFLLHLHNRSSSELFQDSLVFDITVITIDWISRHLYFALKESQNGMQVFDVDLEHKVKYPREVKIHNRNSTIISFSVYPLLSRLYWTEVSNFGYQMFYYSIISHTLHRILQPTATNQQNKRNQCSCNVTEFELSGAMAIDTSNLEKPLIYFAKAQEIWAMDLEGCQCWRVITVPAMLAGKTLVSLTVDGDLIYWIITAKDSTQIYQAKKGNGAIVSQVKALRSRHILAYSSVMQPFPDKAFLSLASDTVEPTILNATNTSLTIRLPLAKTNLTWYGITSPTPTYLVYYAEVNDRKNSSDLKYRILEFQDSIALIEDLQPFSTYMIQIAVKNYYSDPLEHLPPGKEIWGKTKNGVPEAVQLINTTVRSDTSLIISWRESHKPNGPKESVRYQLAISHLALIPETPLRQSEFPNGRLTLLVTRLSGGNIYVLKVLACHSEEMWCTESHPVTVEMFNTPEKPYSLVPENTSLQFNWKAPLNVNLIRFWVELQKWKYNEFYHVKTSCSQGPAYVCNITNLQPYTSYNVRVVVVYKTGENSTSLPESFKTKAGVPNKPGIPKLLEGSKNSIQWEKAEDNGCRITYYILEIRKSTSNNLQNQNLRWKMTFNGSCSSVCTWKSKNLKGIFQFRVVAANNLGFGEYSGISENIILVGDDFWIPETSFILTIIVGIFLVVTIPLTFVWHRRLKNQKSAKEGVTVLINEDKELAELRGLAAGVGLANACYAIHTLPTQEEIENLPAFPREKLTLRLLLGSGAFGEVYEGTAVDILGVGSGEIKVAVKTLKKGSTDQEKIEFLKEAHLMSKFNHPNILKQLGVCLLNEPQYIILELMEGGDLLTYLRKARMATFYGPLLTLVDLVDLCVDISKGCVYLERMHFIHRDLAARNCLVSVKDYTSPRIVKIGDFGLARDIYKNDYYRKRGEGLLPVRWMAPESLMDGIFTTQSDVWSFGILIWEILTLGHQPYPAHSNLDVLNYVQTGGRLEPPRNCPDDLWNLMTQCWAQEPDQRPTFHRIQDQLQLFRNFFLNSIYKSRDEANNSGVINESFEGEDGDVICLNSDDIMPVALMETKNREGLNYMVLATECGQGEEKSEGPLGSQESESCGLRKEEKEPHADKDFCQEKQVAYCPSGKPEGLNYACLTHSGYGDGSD
Assay: Ba/F3-Ros1 cell proliferation assay, wild-type Ros1, without IL-3
Format: cell-based, murine
Conditions: -log IC50 (M); wild-type Ros1, no IL-3, 24 h, Alamar Blue

{"COMPOUND": "CC(C)c1ccc(COc2ccc(-c3c(-c4ccncc4)nn4c3NCC4)cc2)c(F)c1F", "BaF3-ROS1 − IL3 pIC50": 6.3}
{"COMPOUND": "CCOC(=O)c1ccnc2c(-c3ccc(OCc4ccc(C(C)C)cc4)cc3)c(-c3ccncc3)nn12", "BaF3-ROS1 − IL3 pIC50": 5.8}
{"COMPOUND": "CNCC1CCNc2c(-c3ccc(OCc4ccc(C(C)C)cc4)cc3)c(-c3ccncc3)nn21 (centres unmarked)", "BaF3-ROS1 − IL3 pIC50": 6.3}
{"COMPOUND": "CC(C)c1ccc(COc2ccc(-c3c(-c4ccncc4)nn4c3NCC4)cc2)cc1CC(O)CO (centres unmarked)", "BaF3-ROS1 − IL3 pIC50": 7.3}
{"COMPOUND": "CC(C)c1ccc(COc2ccc(-c3c(-c4ccncc4)nn4c3NCC4)c(F)c2)cc1", "BaF3-ROS1 − IL3 pIC50": 7.1}

Values from patent US10342795B2
